Below, each entry is listed with its recorded IC50.
Assay info: DNDI: Cytotoxicity against L-6 rat myoblasts from skeletal muscle cells
Condition details: L6 rat skeletal muscle myoblast cells, IC50

In: Query IC50 for N#Cc1ccccc1N1CCC(NC(c2cccnc2)c2ccc(Cl)cc2F)CC1 (stereo not given)
Out: 39.9 µM

###

In this section we review reported IC50 values for a set of molecules.
Assay info: DNDI: Cytotoxicity against L-6 rat myoblasts from skeletal muscle cells
Condition details: L6 rat skeletal muscle myoblast cells, IC50

Some molecules with known IC50 results, for comparison:
In: Return IC50 for the following molecule: CCS(=O)(=O)N1CCN(C(c2ccc(Cl)cc2)c2cncnc2)CC1 (stereo unspecified)
Out: > 100 µM

In: Entry CC(C)CNC(c1ccc(Cl)cc1)c1cccnc1 (stereo unspecified) needs its IC50 filled in; supply it.
Out: > 100 µM

In: State its IC50: CC(C)CS(=O)(=O)N1CCN(C(c2ccc(Cl)cc2)c2cncnc2)CC1 (stereo unspecified)
Out: 92.7 µM

---
In: Item OC(c1ccc(Cl)cc1)(c1ccc(C(F)(F)F)cc1)c1cnc2ccccc2c1 (stereo unspecified) : provide IC50
Out: 62.6 µM

In: For the molecule OC(c1cccnc1)(c1cnc(Cl)nc1)c1ccc(Cl)cc1F (stereo unspecified) , give its reported IC50.
Out: > 100 µM

In: Look up and state reported IC50 for O=C(NC1CCN(C(c2ccc(C(F)(F)F)cc2)c2cccnc2)CC1)c1ccccc1C(F)(F)F (stereo unspecified)
Out: > 100 µM

In: Input N#Cc1ccc(C(O)(c2ccc(C(F)(F)F)cc2)c2cccnc2)c(F)c1 (stereo unspecified) , output reported IC50.
Out: 77.2 µM

In: Provide measured IC50 value, entry: CC(C)OCCCNC(=O)c1cccc(C(O)(c2ccc(Cl)cc2)c2cccnc2)c1 (stereo unspecified)
Out: 74.8 µM

In: # return recorded IC50 for entry OC(c1ccc(C(F)(F)F)cc1)(c1cncnc1)c1ccccc1Cl (stereo unspecified)
Out: > 100 µM

In: Give the reported IC50 for this molecule. CCCCC(O)(c1ccc(Cl)cc1)c1cnccn1 (stereo unspecified)
Out: > 100 µM

In: For the molecule OC(c1cccnc1)(c1ccsc1)c1ccccc1Cl (stereo unspecified) , give its measured IC50 value.
Out: > 100 µM
